tested on: HGGX42 (H3.3 G34R paediatric high-grade glioma line); experiment: maximal growth inhibition (yFin) relative to DMSO / staurosporine; higher = more efficacious
Recorded maximal growth inhibition, one value per entry.
// units = %; emit number, no label

The examples below pair each entry with its known result.
>  <chemicalSmiles>
C=CCn1c(=O)c2cnc(Nc3ccc(N4CCN(C)CC4)cc3)nc2n1-c1cccc(C(C)(C)O)n1

>  <unitOfMeasure>
%

>  <maximal growth inhibition>
34.5

$$$$
>  <chemicalSmiles>
Fc1ccc(-c2c3cccc(C(F)(F)F)c3nn2Cc2ccc(F)cc2Cl)cc1

>  <unitOfMeasure>
%

>  <maximal growth inhibition>
38.9

$$$$
>  <chemicalSmiles>
COC1=CC(c2cc3ccccc3[nH]2)=N/C1=C\c1[nH]c(C)cc1C

>  <unitOfMeasure>
%

>  <maximal growth inhibition>
119

$$$$

I'd like to know its maximal growth inhibition. The compound in question is CCNC(=O)c1noc(-c2cc(C(C)C)c(O)cc2O)c1-c1ccc(CN2CCOCC2)cc1
34.4

* * *

tested on: HGGX42; assay: area under dose-response curve of % growth inhibition (log2 RLU vs DMSO / staurosporine), 1e-11 to 1e-4 M (% x log10 M); higher = more growth inhibition
readoutLabel: area under dose-response curve
// return just the number, without any unit appended

>  <molecule>
COc1ncc(-c2ccc3nccc(-c4ccnnc4)c3c2)cc1NS(=O)(=O)c1ccc(F)cc1F

>  <area under dose-response curve>
237

$$$$
>  <molecule>
CC(C)C[C@H](NC(=O)CNC(=O)c1cc(Cl)ccc1Cl)B(O)O

>  <area under dose-response curve>
234

$$$$
>  <molecule>
NC1CCC(Nc2cc(-c3cccc(NCc4cccc(F)c4)n3)c(Cl)cn2)CC1 (stereo not drawn)

>  <area under dose-response curve>
230

$$$$
>  <molecule>
O=C(c1ccccc1)c1ccc2nc(NC(=O)c3csc(C4CCN(c5ncnc6ccsc56)CC4)n3)[nH]c2c1

>  <area under dose-response curve>
72.8

$$$$
>  <molecule>
CC(C)N(CCCNC(=O)Nc1ccc(C(C)(C)C)cc1)C[C@H]1O[C@@H](n2cc(Br)c3c(N)ncnc32)[C@H](O)[C@@H]1O

>  <area under dose-response curve>
66.7

$$$$
>  <molecule>
COc1cccc2c1C(=O)c1c(O)c3c(c(O)c1C2=O)C[C@@](O)(C(=O)CO)C[C@@H]3O[C@H]1C[C@H](N)[C@H](O)[C@H](C)O1

>  <area under dose-response curve>
260

$$$$
>  <molecule>
Cn1cnc([N+](=O)[O-])c1Sc1ncnc2[nH]cnc12

>  <area under dose-response curve>
51

$$$$
>  <molecule>
Cc1ccc(C(=O)Nc2ccc(CN3CCN(C)CC3)c(C(F)(F)F)c2)cc1C#Cc1cnc2cccnn12

>  <area under dose-response curve>
164

$$$$

Attention now turns to another entry.
Query (molecule): C[C@@H](Oc1cc(-c2cnn(C3CCNCC3)c2)cnc1N)c1c(Cl)ccc(F)c1Cl ; field requested: area under dose-response curve
117

* * *

The following molecules are shown together with reported EC50 (log10 M) values.
test system: SUDIPGIV (diffuse intrinsic pontine glioma line); experiment: EC50 (inflection of fitted growth-inhibition curve) (log10 M)
Give your answer as a number; write no unit.

>  <molecule>
Fc1ccc(-c2c3cccc(C(F)(F)F)c3nn2Cc2ccc(F)cc2Cl)cc1

>  <experimentalValue>
-5.12

$$$$
>  <molecule>
COc1ccc(-c2nc(N3CCOCC3)c3sc(CN(C)c4ncc(C(=O)NO)cn4)cc3n2)cn1 [CUDC-907]

>  <experimentalValue>
-6.82

$$$$
>  <molecule>
NC1CCC(Nc2cc(-c3cccc(NCc4cccc(F)c4)n3)c(Cl)cn2)CC1 (stereo not drawn) [CDK9-IN-2]

>  <experimentalValue>
-6.76

$$$$
>  <molecule>
CCOC(=O)CCNc1cc(N2CCc3ccccc3CC2)nc(-c2ccccn2)n1 [GSK-J4]

>  <experimentalValue>
-5.01

$$$$
>  <molecule>
COCC1(CO)C(=O)C2CCN1CC2 (stereo not drawn) [APR-246]

>  <experimentalValue>
-4.81

$$$$

Given the entry CC(C)C[C@H](NC(=O)[C@H](CCc1ccccc1)NC(=O)CN1CCOCC1)C(=O)N[C@@H](Cc1ccccc1)C(=O)N[C@@H](CC(C)C)C(=O)[C@@]1(C)CO1 [CARFILZOMIB] , report its measured EC50 (log10 M).
-7.24

If you can, please state the reported EC50 (log10 M) value of CC(C)C[C@H](NC(=O)CNC(=O)c1cc(Cl)ccc1Cl)B(O)O [IXAZOMIB] .
-7.6

What value of EC50 (log10 M) has been recorded for this entry: CN(C)C/C=C/C(=O)Nc1cc2c(Nc3ccc(F)c(Cl)c3)ncnc2cc1O[C@H]1CCOC1 [AFATINIB]
-4.82

Could you tell me which EC50 (log10 M) is on file for COc1ncc(-c2ccc3nccc(-c4ccnnc4)c3c2)cc1NS(=O)(=O)c1ccc(F)cc1F [OMIPALISIB] ?
-6.11

Entry under review: Nc1ccc2ncnc(NCCc3ccc(Oc4ccccc4)cc3)c2c1 [EVP4593] . Reported EC50 (log10 M)?
-7.95

Would you mind telling me what EC50 (log10 M) value was observed for CC(C)(C)OC(=O)Nc1ccc(-c2cc(C(=O)NCCCCCCC(=O)NO)no2)cc1 [BML-281] ?
-5.19

I am curious: what EC50 (log10 M) value has been reported for C[C@@]12OC(=O)[C@]1([C@@H](O)[C@@H]1C=CCCC1)NC(=O)[C@@H]2CCCl [MARIZOMIB] ?
-7.41

Field request: EC50 (log10 M) | item: CC(C)(C)c1cnc(CSc2cnc(NC(=O)C3CCNCC3)s2)o1
-6.15

Find the recorded EC50 (log10 M) belonging to CC(=O)c1cc([N+](=O)[O-])c(Sc2ccc(F)cc2F)s1 and report it.
-4.71

Can you look up the measured EC50 (log10 M) of Cn1cnc([N+](=O)[O-])c1Sc1ncnc2[nH]cnc12 [AZATHIOPRINE] for me?
-5.75

Need EC50 (log10 M) of CCCc1cc(C)[nH]c(=O)c1CNC(=O)c1cc(-c2ccnc(N3CCN(C)CC3)c2)cc2c1cnn2C(C)C [GSK343] , thanks.
-4.69

Which EC50 (log10 M) value is on record for CC[C@@]1(O)C(=O)OCc2c1cc1n(c2=O)Cc2cc3c(CN(C)C)c(O)ccc3nc2-1 [TOPOTECAN] ?
-7.62

Given the molecule CCNC(=O)c1noc(-c2cc(C(C)C)c(O)cc2O)c1-c1ccc(CN2CCOCC2)cc1 [NVP-AUY922] , what is its reported EC50 (log10 M)?
-7.28
